- ASSAY OVERVIEW: Cytotoxicity against human HEL cells assessed as altered cell morphology
- Assay type: cell-based
Catalogue of compounds with associated MCC

STRUCTURE: Nc1ccn(C[C@@H](CO)OCP(=O)(O)O)c(=O)n1.O.O
MEASURE NAME: MCC
VAL: > 250 µg/mL
//
STRUCTURE: Nc1ccccc1C(=O)n1c(-c2ccc(S(=O)(=O)O)cc2)nc2ccccc21
MEASURE NAME: MCC
VAL: > 100 µg/mL
//
STRUCTURE: O=C(c1ccc(O)cc1O)n1c(-c2ccc(S(=O)(=O)O)cc2)nc2ccccc21
MEASURE NAME: MCC
VAL: 100 µg/mL
//
STRUCTURE: O=C(c1cccnc1)n1c(-c2ccc(S(=O)(=O)O)cc2)nc2ccccc21
MEASURE NAME: MCC
VAL: > 100 µg/mL
//
STRUCTURE: NC(=O)c1ncn([C@@H]2O[C@H](CO)[C@@H](O)[C@H]2O)n1
MEASURE NAME: MCC
VAL: > 250 µg/mL
//
STRUCTURE: O=C(c1ccccc1O)n1c(-c2ccc(S(=O)(=O)O)cc2)nc2ccccc21
MEASURE NAME: MCC
VAL: > 100 µg/mL
//
STRUCTURE: O=c1[nH]c(=O)n([C@H]2C[C@H](O)[C@@H](CO)O2)cc1/C=C/Br
MEASURE NAME: MCC
VAL: > 250 µg/mL
//
STRUCTURE: Cc1ccc(C(=O)n2c(-c3ccc(S(=O)(=O)O)cc3)nc3ccccc32)cc1
MEASURE NAME: MCC
VAL: > 100 µg/mL

Below: the item to evaluate.
For this compound ( "C/C=C/C(=O)n1c(-c2ccc(S(=O)(=O)O)cc2)nc2ccccc21" ), measured MCC is > 100 µg/mL

Taken from ChEMBL document CHEMBL1629526.
